- System: NCI-H226
- procedure.summary: NCI tumour cell line growth inhibition, 48 h
Activity calls are given as the source filed them. No stated cut-off is given here; in the data, active = GI50 up to about 1.1 µM and inactive = higher.
measured.attribute: GI50

[
  {
    "compound": "CN1C(=O)C(O)CC1c1cccc(F)c1 (configuration not stated)",
    "GI50": "> 100 µM (inactive)"
  },
  {
    "compound": "COC(=O)/C(C#N)=C/c1cc(C(C)(C)C)c(O)c(C(C)(C)C)c1",
    "GI50": "1.96 µM (inactive)"
  },
  {
    "compound": "CC(=O)Oc1c(N2CCCCC2)c(C(=O)c2ccccc2)c(O)c2ccn(N(C)C)c12",
    "GI50": "14.2 µM (inactive)"
  },
  {
    "compound": "COc1ccccc1C1ON=C(c2ccc([N+](=O)[O-])cc2)N1C12CC3CC(CC(C3)C1)C2 (configuration not stated)",
    "GI50": "> 100 µM (inactive)"
  },
  {
    "compound": "COc1ccc(/C=c2/sc3n(c2=O)NC2(CCCCC2)NN=3)cc1",
    "GI50": "> 100 µM (inactive)"
  }
]

# return GI50 for each item in the list
1. CN(C)CCCNC(=O)c1cccc2ccccc12
2. Oc1ccc(Br)cc1/C=N/c1cccc(C(F)(F)F)c1
3. NS(=O)(=O)c1c(O)c2ccccc2oc1=O
4. CC12CCC3=C(CSC4=C3CSc3ccccc34)C1=CCCC2=O (configuration not stated)
5. O=C1CC(c2ccc(Cl)cc2)=Nc2ccccc2N1

result:
1: > 100 µM (inactive); 2: 17.3 µM (inactive); 3: > 100 µM (inactive); 4: 64.3 µM (inactive); 5: > 100 µM (inactive)

# return GI50 for each item in the list
1. O=C(CO[N+](=O)[O-])OC/C=C/c1ccccc1
2. O=C(c1ccco1)N(C(=O)N1CCC(c2ccccc2)CC1)c1ccccc1

result:
["> 100 µM (inactive)", "31.7 µM (inactive)"]

Ref: ChEMBL document CHEMBL1201862
